# test target: HLA-B*51:01
# experimental details: IEDB peptide-MHC binding, purified MHC/direct/fluorescence; filed as Kd, often an IC50 or EC50 that approximates it; bounds were set here for any values at or beyond the usual limits of such assays
# experimental conditions: source organism: Vibrio parahaemolyticus AQ3810
experimental readout: Kd

construct sequence	test result
RLDKPLWLH	≥ 20 µM

----------
# test target: HLA-C*14:02
# experimental details: IEDB peptide-MHC binding, purified MHC/competitive/fluorescence; filed as Kd, often an IC50 or EC50 that approximates it; bounds were set here for any values at or beyond the usual limits of such assays
# experimental conditions: source organism: Orthohantavirus sinnombreense
pKd: −log10 of the molar value.
experimental readout: pKd

construct sequence	experimental readout	test result
YTFTSLFSL	pKd	8.24

----------
# test target: HLA-A*23:01
# experimental details: IEDB peptide-MHC binding, purified MHC/competitive/radioactivity; filed as Kd, often an IC50 or EC50 that approximates it; bounds were set here for any values at or beyond the usual limits of such assays
# experimental conditions: source organism: Dengue virus 3 Sri Lanka/1266/2000

construct sequence	test target	Kd (nM)
MMILPAALAF	HLA-A*23:01	119

----------
# test target: HLA-B*58:01
# experimental details: IEDB peptide-MHC binding, purified MHC/direct/fluorescence; filed as Kd, often an IC50 or EC50 that approximates it; bounds were set here for any values at or beyond the usual limits of such assays
# experimental conditions: source organism: Influenza A virus (A/camel/Mongolia/1982(H1N1))
pKd: −log10 of the molar value.

construct sequence	pKd
SSVSSFERF	7.14

----------
# test target: HLA-A*24:02
# experimental details: IEDB peptide-MHC binding, purified MHC/competitive/radioactivity; filed as Kd, often an IC50 or EC50 that approximates it; bounds were set here for any values at or beyond the usual limits of such assays
# experimental conditions: source organism: Dengue virus 2 Peru/IQT2913/1996
pKd: −log10 of the molar value.

construct sequence	pKd
EYVKTRTNDW	5.66

----------
# test target: HLA-B*07:02
# experimental details: IEDB peptide-MHC binding, purified MHC/direct/fluorescence; filed as Kd, often an IC50 or EC50 that approximates it; bounds were set here for any values at or beyond the usual limits of such assays
# experimental conditions: source organism: Cryptosporidium parvum

construct sequence	Kd
DFIGKTIGF	≥ 20 µM

----------
# test target: HLA-B*58:01
# experimental details: IEDB peptide-MHC binding, purified MHC/competitive/radioactivity; filed as Kd, often an IC50 or EC50 that approximates it; bounds were set here for any values at or beyond the usual limits of such assays
# experimental conditions: source organism: Dengue virus 3 Singapore/8120/1995
pKd: −log10 of the molar value.

construct sequence	pKd
MIAGVLFTF	7.69
WMADVPLQW	9.28

----------
# test target: HLA-B*15:01
# experimental details: IEDB peptide-MHC binding, purified MHC/direct/fluorescence; filed as Kd, often an IC50 or EC50 that approximates it; bounds were set here for any values at or beyond the usual limits of such assays
# experimental conditions: source organism: Lassa virus Josiah
pKd: −log10 of the molar value.

construct sequence	pKd
GLVECNNHY	6.74

----------
# test target: HLA-B*08:01
# experimental details: IEDB peptide-MHC binding, purified MHC/direct/fluorescence; filed as Kd, often an IC50 or EC50 that approximates it; bounds were set here for any values at or beyond the usual limits of such assays
# experimental conditions: source organism: Mycobacterium tuberculosis str. Haarlem
experimental readout: Kd (nM)

construct sequence	experimental readout	test result
IMANRAQVL	Kd	332

----------
# test target: HLA-A*29:02
# experimental details: IEDB peptide-MHC binding, purified MHC/competitive/fluorescence; filed as Kd, often an IC50 or EC50 that approximates it; bounds were set here for any values at or beyond the usual limits of such assays
# experimental conditions: source organism: Vibrio cholerae 2740-80
experimental readout: Kd

construct sequence	test result
VQPWLMVDV	≥ 20 µM

----------
# test target: HLA-B*58:01
# experimental details: IEDB peptide-MHC binding, purified MHC/direct/fluorescence; filed as Kd, often an IC50 or EC50 that approximates it; bounds were set here for any values at or beyond the usual limits of such assays
# experimental conditions: source organism: Giardia lamblia ATCC 50803
# Lookup of reported Kd keyed by entry

construct sequence	test target	rel	Kd [µM]
PTAPSDGGM	HLA-B*58:01	=	9
DYIYLPLLK	HLA-B*58:01	≥	20

----------
# test target: HLA-B*27:05
# experimental details: IEDB peptide-MHC binding, purified MHC/direct/fluorescence; filed as Kd, often an IC50 or EC50 that approximates it; bounds were set here for any values at or beyond the usual limits of such assays
# experimental conditions: source organism: Mycobacterium tuberculosis str. Haarlem
pKd: −log10 of the molar value.
experimental readout: pKd

construct sequence	test result
IMANRAQVL	≤ 4.70

----------
# test target: HLA-B*35:01
# experimental details: IEDB peptide-MHC binding, purified MHC/competitive/radioactivity; filed as Kd, often an IC50 or EC50 that approximates it; bounds were set here for any values at or beyond the usual limits of such assays
# experimental conditions: source organism: Mammarenavirus guanaritoense
pKd: −log10 of the molar value.

construct sequence	pKd
NPLVITTSV	5.26

----------
# test target: HLA-A*02:11
# experimental details: IEDB peptide-MHC binding, purified MHC/direct/fluorescence; filed as Kd, often an IC50 or EC50 that approximates it; bounds were set here for any values at or beyond the usual limits of such assays
# experimental conditions: source organism: Encephalitozoon cuniculi GB-M1
pKd: −log10 of the molar value.

construct sequence	pKd
FSFFMNENF	≤ 4.70

----------
# test target: HLA-A*26:01
# experimental details: IEDB peptide-MHC binding, purified MHC/direct/fluorescence; filed as Kd, often an IC50 or EC50 that approximates it; bounds were set here for any values at or beyond the usual limits of such assays
# experimental conditions: source organism: Orthohantavirus moroense
experimental readout: Kd (nM)

construct sequence	test target	experimental readout	unit string	test result
ATKDSFQSF	HLA-A*26:01	Kd	nM	556

----------
# test target: HLA-A*23:01
# experimental details: IEDB peptide-MHC binding, purified MHC/competitive/fluorescence; filed as Kd, often an IC50 or EC50 that approximates it; bounds were set here for any values at or beyond the usual limits of such assays
# experimental conditions: source organism: Brucella melitensis bv. 1 str. 16M
pKd: −log10 of the molar value.
experimental readout: pKd

construct sequence	test result
AVGVVCTGL	≤ 4.70

----------
# test target: HLA-B*40:01
# experimental details: IEDB peptide-MHC binding, purified MHC/direct/fluorescence; filed as Kd, often an IC50 or EC50 that approximates it; bounds were set here for any values at or beyond the usual limits of such assays
# experimental conditions: source organism: Bacillus anthracis

construct sequence	test target	Kd
TVIRFWHAM	HLA-B*40:01	≥ 20 µM

----------
# test target: HLA-A*33:01
# experimental details: IEDB peptide-MHC binding, purified MHC/competitive/radioactivity; filed as Kd, often an IC50 or EC50 that approximates it; bounds were set here for any values at or beyond the usual limits of such assays
# experimental conditions: source organism: SARS coronavirus Tor2
We label by threshold. Values of Kd strictly beneath 8 µM are 1. Values of 8 µM and up are -1.

construct sequence	answer label
VQIDRLITGR	1
SAGFSLWIY	-1
ALKYLPIDK	-1
KSAQCFKMFY	1
HLYLQYIRK	1
SADASTFLK	1
TMLFTMLRK	-1
STSAFIDTIK	-1
ALGGSIAVK	-1
AFQHQNSKK	-1
QLEQPYVFIK	-1
IVQMLSDTLK	-1
ATSTGNYNYK	-1
WVFGSTMNNK	-1
TLVPQEHYVR	1

----------
# test target: HLA-A*02:03
# experimental details: IEDB peptide-MHC binding, purified MHC/competitive/fluorescence; filed as Kd, often an IC50 or EC50 that approximates it; bounds were set here for any values at or beyond the usual limits of such assays
# experimental conditions: source organism: Brucella melitensis bv. 1 str. 16M
experimental readout: Kd

construct sequence	test result
AVGVVCTGL	≥ 20 µM

----------
# test target: HLA-A*02:12
# experimental details: IEDB peptide-MHC binding, purified MHC/competitive/fluorescence; filed as Kd, often an IC50 or EC50 that approximates it; bounds were set here for any values at or beyond the usual limits of such assays
# experimental conditions: source organism: Burkholderia orbicola
pKd: −log10 of the molar value.
experimental readout: pKd

construct sequence	test result
RIEQLYPFA	≤ 4.70

----------
# test target: HLA-B*51:01
# experimental details: IEDB peptide-MHC binding, purified MHC/competitive/radioactivity; filed as Kd, often an IC50 or EC50 that approximates it; bounds were set here for any values at or beyond the usual limits of such assays
# experimental conditions: source organism: Dengue virus 4 Philippines/H241/1956
pKd: −log10 of the molar value.

construct sequence	pKd
SPARLASAI	6.27
MAMTTVLSI	7.44
